Recorded pIC50, one value per entry.
test_system: UDP-3-O-acyl-N-acetylglucosamine deacetylase (Escherichia coli K-12)
Please treat pIC50 as minus the base-10 logarithm of the molar concentration.

CS(=O)(=O)c1cc(=O)c(O)c(CNc2ccc(-c3ccc(N4CCOCC4)cc3)cc2)o1 : 7.00
CCCCCC(=O)O[C@@H]1[C@@H](CP(C)(=O)O)CO[C@H](CO)[C@H]1O : 3.94

Next item in the queue.
Record `O=C(CO/N=C/c1ccc(O)c(O)c1O)NC[C@H]1O[C@@H](n2ccc(=O)[nH]c2=O)[C@@H](O)[C@H]1O` , field pIC50: 4.57

====

Target sequence: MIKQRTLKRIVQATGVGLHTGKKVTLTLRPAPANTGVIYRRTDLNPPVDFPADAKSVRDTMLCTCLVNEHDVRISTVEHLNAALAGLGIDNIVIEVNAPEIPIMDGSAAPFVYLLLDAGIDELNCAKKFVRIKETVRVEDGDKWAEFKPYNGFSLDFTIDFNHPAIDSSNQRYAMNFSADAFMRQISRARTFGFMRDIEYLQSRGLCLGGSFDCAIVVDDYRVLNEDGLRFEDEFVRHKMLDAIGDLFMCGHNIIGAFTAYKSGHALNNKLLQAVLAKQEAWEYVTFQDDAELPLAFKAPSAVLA
experimental_endpoint: Ki

Record `O=C(NO)[C@H]1O[C@@H](c2ccc(C#CC#Cc3ccccc3)cc2)[C@@H](O)[C@H]1O` , field Ki: 4.4 µM
